- Test system: GABA receptor complex (GRC)
- measurement-protocol: [35S]TBPS binding in rat cerebral cortex P2 homogenate
- recorded-conditions: maximum inhibition of [35S]TBPS binding
- Excerpt: To those skilled in the art, it is known that the modulation of [^35S]t-butylbicyclophosphorothionate ([^35S]TBPS) binding is a measure of the potency and efficacy of drugs acting at the GRC, which drugs may be of potential therapeutic value in the treatment of stress, anxiety, and seizure disorders (Squires, R. F., et al., Mol, Pharmacol., 23:326 (1983); Lawrence, L. J., et al., Biochem. Biophys. Res. Comm., 123:1130-1137 (1984); Wood, et al., Pharmacol, Exp. Ther., 231:572-576 (1984)). […]
Where a name gives a salt, the structure may show the parent alone.
property-label: IMAX (maximum inhibition) (%)
I only need the number, in %, no unit after it.

Below, 3 compounds whose answers are already recorded.
compound	IMAX (maximum inhibition) (%)
COC1CCC2C3CCC4CC(O)(CCl)CCC4(C)C3CCC12C (stereo not shown)	98
CC(C)O[C@H]1C[C@@]2(C)[C@@H](CC[C@H]3[C@@H]4CCC[C@@]4(C)CC[C@@H]32)C[C@@H]1O [3α-Hydroxy-2β-isopropoxy-5α-androstane, 2β-Isopropoxy-3α-hydroxy-5α-androstane]	98
C[C@]12CC[C@@H](O)C[C@H]1CC[C@@H]1[C@@H]2CC[C@]2(C)[C@@H](C(=O)COc3cccnc3)CC[C@@H]12	76

Assign IMAX (maximum inhibition) to the following record: C#CC1(O)CCC2(C)C(CCC3C2CCC2(C)C(C(=O)CSCCC(=O)O)CCC32)C1 (stereo not shown) [sodium salt] 101

Assign IMAX (maximum inhibition) to the following record: CC(=O)c1ccc(C#CC2(O)CCC3C(CCC4C3CCC3(C)CCCC43)C2)cc1 (stereo not shown) 99

Assign IMAX (maximum inhibition) to the following record: COC1CCC2C3CCC4CC(O)(C#Cc5ccc(C(C)=O)cc5)CCC4(C)C3CCC12C (stereo not shown) 104

Assign IMAX (maximum inhibition) to the following record: C[C@]12CC[C@@H](O)C[C@H]1CC[C@@H]1[C@@H]2CC[C@]2(C)[C@@H](C(=O)CSc3ccccn3)CC[C@@H]12 66
